Source: a melting point compilation (Tetko et al.; mined from patent text by program, amines drawn as free bases though some values may be those of a salt)

Task for the reader: assign each of the following compounds its reported melting point.

// returns reported melting point for input CCS(=O)c1cc2c(c3c1OC(C)(C)C3)C(c1ccccc1)=NC(C)(C)C2 (configuration not stated)
146 to 147 °C

// returns reported melting point for input "O=C(NCCCn1cncn1)Nc1ccc(Cl)cc1"
137 to 139 °C

// returns reported melting point for input "C=CCn1c(=Nc2ccccc2)sc2ncccc2c1=O"
94 to 95 °C

// returns reported melting point for input CC1(c2ccccc2)Cc2cc(OCCO)c(Cl)c(Cl)c2C1=O (configuration not stated)
188 to 190 °C

// returns reported melting point for input "Cc1oc(-c2ccccc2)nc1COc1ccc(COc2ncccc2C#N)cc1"
119 to 120 °C

// returns reported melting point for input "CCOC(=O)CCCNC(=O)c1cc(Br)no1"
72 to 73 °C

// returns reported melting point for input "O=C(c1c[nH]c2cc(Br)ccc12)C(F)(F)F"
258 to 260 °C

// returns reported melting point for input "FC(F)(F)Oc1ccc(/C=C/c2ccc(CBr)cc2)cc1"
100 to 102 °C

// returns reported melting point for input "CCNc1nc(CC)c(-c2ccncc2)s1"
126 to 128 °C

// returns reported melting point for input OC1CSC(Oc2ccc(-c3ccncc3)nc2)C(O)C1O (configuration not stated)
248 °C

// returns reported melting point for input CCOC(=O)C1(C)Cc2cc(Cl)cc([N+](=O)[O-])c2O1 (configuration not stated)
69 to 72.5 °C

// returns reported melting point for input "CC(C)n1nc(-c2cnc(Nc3ccccc3)nc2-c2ccccc2)ccc1=O"
200 to 202 °C

// returns reported melting point for input "Nc1nc(N)c(-c2cc(Cl)cc(Cl)c2Cl)c(CF)n1"
215 to 217 °C

// returns reported melting point for input "C#CCN1C(=O)COc2cc(F)c(N)cc21"
132 to 134 °C

// returns reported melting point for input "COc1cc(C2CCN(C[C@H](Oc3ncc4ccc(-c5ccccc5OC)n4n3)C(F)(F)F)CC2)ccc1N"
73 to 82 °C

// returns reported melting point for input "CC(=O)NC[C@H]1CN(c2ccc(N3CCN(c4ccc([N+](=O)[O-])o4)CC3)c(F)c2)C(=O)O1"
191 to 204 °C

// returns reported melting point for input "CCCCCCCCc1cnc(-c2ccc(C#N)cc2)nc1"
66.1 to 66.5 °C

// returns reported melting point for input "CC(C)C[C@H](NC(=O)c1ccc2c(c1)Nc1ccccc1S2)C(=O)N1CCC2(C1)OCCO2"
75 to 77 °C

// returns reported melting point for input "ON=C(c1ccncc1)c1ccc(F)cc1F"
155 to 200 °C

// returns reported melting point for input "O=C(O)c1ccccc1Nc1ccncc1"
275 to 280 °C

// returns reported melting point for input "COc1ccc(COc2cc(NC(C)=O)c(Cl)cc2C(=O)CCCCCl)cc1OC"
147 °C

// returns reported melting point for input "Cc1cc(C)c2c(=O)cc(C(=O)O)[nH]c2c1"
285 to 287 °C
